// provenance: patent US20200002303A1

# System: FimH (Escherichia coli, UniProt Q1R2J4)
# Construct: performed with UTI89 bacteria and guinea pig red blood cells; endogenous in cells; host or cells: UTI89 bacteria (whole cells, type 1 piliated)
# Type: cell-based
# Recorded conditions: concentration reducing bacterial agglutination of guinea pig red blood cells by greater than 90%; UTI89 bacteria
# Method: The hemagglutination inhibition (HAI) assay was performed with UTI89 bacteria and guinea pig red blood cells, as previously described (S. J. Hultgren, W. R. Schwan, A. J. Schaeffer, J. L. Duncan Infect. Immun. 1986, 54, 613-620).
Would you kindly list HAI titer EC>90 for each of these compounds?
Numbers only, in µM.

Example cases with answers are listed next.
{"Molecular string": "Cc1cc(-c2cccc3c2CCN(C)C3)ccc1[C@@H](O)[C@H]1O[C@H](CO)[C@@H](O)[C@H](O)[C@@H]1O", "HAI titer EC>90 [µM]": 1}
{"Molecular string": "Cc1cc(-c2ccc3ccncc3c2)ccc1[C@@H](O)[C@H]1O[C@H](CO)[C@@H](O)[C@H](O)[C@@H]1O", "HAI titer EC>90 [µM]": 0.016}
{"Molecular string": "Cc1cc(-c2ccc3ccn(C(C)C)c(=O)c3c2)ccc1[C@@H](O)[C@H]1O[C@H](CO)[C@@H](O)[C@H](O)[C@@H]1O", "HAI titer EC>90 [µM]": 0.006}
{"Molecular string": "Cc1cc(-c2cn3ccccc3n2)ccc1[C@@H](O)[C@H]1O[C@H](CO)[C@@H](O)[C@H](O)[C@@H]1O", "HAI titer EC>90 [µM]": 0.019}
{"Molecular string": "Cc1cc(-c2ccc3cnccc3c2)ccc1[C@@H](O)[C@H]1O[C@H](CO)[C@@H](O)[C@H](O)[C@@H]1O", "HAI titer EC>90 [µM]": 0.052}

Now take the following compound into account.
Exercise: Consider the compound CNC(=O)c1cccc(-c2ccc([C@@H](O)[C@H]3O[C@H](CO)[C@@H](O)[C@H](O)[C@@H]3O)c(Cl)c2)c1 and give its measured HAI titer EC>90.
Key: 0.047
